Ref: PubChem BioAssay AID652062

- assay comment: HIV-1 AD8 envelope cell-cell fusion blockers – cherry-pick, dose response (AID 652062)
- condition description: HeLa-AD8 Env / CEM-CCR5 cell fusion, luciferase; at 35 µM (top of the series) unless noted
The campaign covered roughly 1,400 compounds. About 1,100 (79%) were called active. So high a share suggests a set chosen from earlier hits. Only a sample is shown. Potency and affinity values are given separately.
Recorded activity change, negative = inhibition, one value per entry.

compound | measure unit | activity change, negative = inhibition
O=C1c2cccnc2C(Nc2ccc(S(=O)(=O)N3CCCCCC3)cc2)N1Cc1ccccc1 (centres undefined) | % | -20.4
CCCN1[C@H](C(=O)N[C@@H](C)c2ccccc2)[C@@H](CO)[C@@H]2Cn3c(ccc(-c4cccc(F)c4)c3=O)[C@@H]21 | % | 99.2
O=C1c2cccnc2C(Nc2ccc(S(=O)(=O)N3CCCCC3)cc2)N1Cc1ccccc1 (centres undefined) | % | 6.27

====

- assay comment: HIV-1 AD8 envelope cell-cell fusion blockers – cherry-pick, dose response (AID 652062)
- condition description: HeLa-AD8 Env / CEM-CCR5 cell fusion, luciferase; at 35 µM (top of the series) unless noted
About 1,100 (79%) of roughly 1,400 compounds were called active. So high a share suggests a set chosen from earlier hits. Not all results are given here. Measured potencies and affinities stand elsewhere.
So basically: activity change, negative = inhibition at 20% or higher? That is class 1. Lower than 20%? That is class 0.

molecule | discrete label
CCNC(=O)Nc1ccc2c(c1)C(=O)N(C)[C@@H]1CC[C@@H](CC(=O)NCC3CCCCC3)O[C@@H]1CO2 | class 0
O=C(CNC(=O)c1cccc(-n2cccc2)c1)Nc1ccccc1Br | class 0
O=C(NCc1ccccc1)[C@@H]1CCCN1C(=O)[C@@H]1CCCN1C(=O)c1cccc2ccccc12 | class 0
COc1ccc2c3c([nH]c2c1)[C@H](CO)N(C(=O)Nc1cccc(F)c1)CC31CCN(S(=O)(=O)c2ccccc2)CC1 | class 0
COC(=O)[C@@]1(Cc2ccc(F)cc2)[C@H]2c3cc(C(=O)N(C)C)n(CCO)c3C[C@H]2CN1C(=O)c1ccccc1 | class 1
C[C@@H]1CN([C@H](C)CO)C(=O)c2cc(NS(=O)(=O)c3ccc(F)cc3)ccc2O[C@H]1CN(C)Cc1ccc(C(F)(F)F)cc1 | class 0
O=C(Nc1cccc(F)c1)N[C@@H]1CC[C@H](CCNS(=O)(=O)c2cccc(Cl)c2)O[C@H]1CO | class 1
Cc1ccc(-n2nc3c(c2NC(=O)c2ccco2)CS(=O)C3)cc1 (centres undefined) | class 0
O=C(C[C@H]1C[C@H]2c3cc(NS(=O)(=O)c4ccc(F)cc4)ccc3O[C@H]2[C@@H](CO)O1)NCc1ccccc1F | class 1
CN1C(=O)c2cc(NC(=O)NC3CCCC3)ccc2OC[C@@H]2O[C@H](CC(=O)NC3CCC3)CC[C@@H]21 | class 0
Cc1ccc2c(C)nc(Nc3nc(CSc4nnnn4-c4ccccc4)cc(=O)[nH]3)nc2c1 | class 0
O=C(Nc1cc(Cl)cc(Cl)c1)C(c1ccccc1)N1CCCCC1 (centres undefined) | class 0
Cc1[nH]c2ccccc2c1/C=N\NC(=O)c1ccccc1Cl | class 0
CCCCCn1c(C(C)NC(=O)CCC)nc2ccccc21 (centres undefined) | class 0
O=C(CCN1CCCCC1)N[C@H]1CC[C@H](CCn2cc(-c3ccccc3)nn2)O[C@@H]1CO | class 0
Cc1cccc(/C=N\Nc2cn[nH]c(=O)c2Cl)c1 | class 1
O=C(C[C@H]1C[C@H]2c3cc(NC(=O)Cc4ccncc4)ccc3O[C@H]2[C@@H](CO)O1)NCc1ccncc1 | class 1
CO[C@@H]1CN(C)C(=O)c2cc(NS(=O)(=O)c3ccc(C)cc3)ccc2OC[C@H](C)N(C(=O)NC(C)C)C[C@@H]1C | class 0
COc1ccc(OC)c(NC(=O)COc2ccc3c(c2)CCC3)c1 | class 1
O=C(C[C@@H]1C[C@@H]2c3cc(NC(=O)C4CCOCC4)ccc3O[C@@H]2[C@H](CO)O1)NCc1ccccc1F | class 1
COCCNC(=O)C[C@@H]1C[C@H]2c3cc(N(C)C)ccc3O[C@H]2[C@@H](CO)O1 | class 0
O=C(NCC[C@@H]1CC[C@@H](NS(=O)(=O)c2ccccc2F)[C@@H](CO)O1)c1ccc(F)cc1 | class 1
O=C(NCc1cccc(F)c1)[C@@H]1[C@@H](CO)[C@@H]2Cn3c(ccc(-c4cccnc4)c3=O)[C@H]1N2CC1CC1 | class 0
CCC(=O)N(C)C(c1ccccc1Cl)c1nnnn1-c1c(C)cccc1C (centres undefined) | class 1
COc1ccccc1CN(C)C(=O)CN1CCN(C(=O)c2cccs2)CC1 | class 0
C[C@@H]1CN([C@H](C)CO)C(=O)c2cccc(NS(=O)(=O)c3cn(C)cn3)c2O[C@H]1CN(C)C(=O)Nc1ccc(F)cc1 | class 0
O=C(N/N=C/c1ccc(-n2ccnc2)cc1)c1cccs1 | class 1
CCNC(=O)C[C@H]1CC[C@@H]2[C@@H](COc3ccc(NC(=O)Cc4cccs4)cc3C(=O)N2C)O1 | class 1
COc1cccc(S(=O)(=O)N(C)C[C@H]2Oc3cc(C4=CCCC4)ccc3S(=O)(=O)N([C@H](C)CO)C[C@@H]2C)c1 | class 1
CN(C)CC(=O)Nc1ccc2c(c1)[C@H]1C[C@H](CC(=O)NCc3cccc(F)c3)O[C@@H](CO)[C@H]1O2 | class 0
COCC(=O)Nc1ccc2c(c1)C(=O)N(C)[C@H]1CC[C@H](CC(=O)NC3CCCC3)O[C@H]1CO2 | class 0

====

- assay comment: HIV-1 AD8 envelope cell-cell fusion blockers – cherry-pick, dose response (AID 652062)
- condition description: HeLa-AD8 Env / CEM-CCR5 cell fusion, luciferase; at 35 µM (top of the series) unless noted
The campaign covered roughly 1,400 compounds. About 1,100 (79%) were called active. So high a share suggests a set chosen from earlier hits. The list is a sample of the results. Results with a measured potency or affinity are listed apart.

molecule smiles | activity change, negative = inhibition (%)
COC(=O)[C@]12CCCCC=C1N(Cc1ccco1)C(=O)[C@H](CC(=O)NCCc1ccccc1OC)C2 | 99.6
Cc1ccc(NS(=O)(=O)c2cc(C(=O)N(C)C3CCN(C)CC3)ccc2Cl)cc1Cl | 81.1

====

Listed below: activity change, negative = inhibition values for each entry.
- assay comment: HIV-1 AD8 envelope cell-cell fusion blockers – cherry-pick, dose response (AID 652062)
- condition description: HeLa-AD8 Env / CEM-CCR5 cell fusion, luciferase; at 35 µM (top of the series) unless noted
In all, about 1,400 compounds went through this assay and about 1,100 (79%) were called active. The set was probably picked from earlier hits. The list is a sample of the results. Entries with a potency or affinity are not part of this list.
endpoint label: activity change, negative = inhibition

compound | endpoint label | endpoint result
C[C@H]1CN([C@@H](C)CO)C(=O)c2cccc(NS(=O)(=O)c3ccc(Cl)cc3)c2O[C@@H]1CN(C)Cc1ccc(C(F)(F)F)cc1 | activity change, negative = inhibition | 9.5%
O=C(NCc1ccco1)c1ccc(Cn2c(=O)c3ccccc3n(Cc3cccc(F)c3)c2=O)cc1 | activity change, negative = inhibition | 15.9%
O=C(NCCCc1nc2ccccc2[nH]1)c1ccco1 | activity change, negative = inhibition | -25.6%
O=C(C[C@@H]1C[C@@H]2c3cc(NC(=O)C4CCOCC4)ccc3O[C@@H]2[C@H](CO)O1)NCCc1ccccc1 | activity change, negative = inhibition | -21%
O=C(COC(=O)c1cc(S(=O)(=O)N2CCOCC2)ccc1O)NCc1ccc2c(c1)OCO2 | activity change, negative = inhibition | 28.5%
O=C(C[C@H]1C[C@@H]2c3cc(NC(=O)C4CCC4)ccc3O[C@@H]2[C@@H](CO)O1)NCC(F)(F)F | activity change, negative = inhibition | 7.19%
CC(=O)Nc1ccc(C(=O)OCC(=O)NC(=O)NCc2ccccc2)cc1 | activity change, negative = inhibition | 16.9%
C[C@@H]1CN([C@@H](C)CO)C(=O)c2cccc(NC(=O)c3cnccn3)c2O[C@H]1CN(C)Cc1ccc(Cl)c(Cl)c1 | activity change, negative = inhibition | 142% [at 16 µM]
NC(Cc1ccc(F)cc1)c1csc(Nc2ccc(C(F)(F)F)cn2)n1 (centres undefined) | activity change, negative = inhibition | -26.6% [at 16 µM]
C[C@@H]1CN([C@H](C)CO)C(=O)c2cc(NC(=O)Nc3ccccc3)ccc2O[C@@H]1CN(C)S(=O)(=O)c1ccccc1 | activity change, negative = inhibition | 138%
CCNc1ncnc2c1cnn2C1CCCO1 (centres undefined) | activity change, negative = inhibition | -11.7%
CS(=O)(=O)Nc1ccc2c(c1)[C@H]1C[C@H](CC(=O)N3CCc4ccccc4C3)O[C@H](CO)[C@H]1O2 | activity change, negative = inhibition | -8.56%
C[C@@H]1CN([C@H](C)CO)C(=O)c2cccc(NS(=O)(=O)c3ccc(Cl)cc3)c2O[C@@H]1CN(C)Cc1ccc(Cl)c(Cl)c1 | activity change, negative = inhibition | -25.6%
CS(=O)(=O)N(Cc1ccc(Cl)cc1)c1ccc(C(=O)NCCC2=CCCCC2)cc1 | activity change, negative = inhibition | -7.87%
O=C(N[C@@H]1CC[C@H](CCNS(=O)(=O)c2ccc(F)cc2)O[C@@H]1CO)C1CC1 | activity change, negative = inhibition | 21.6%
O=C(C[C@@H]1C[C@@H]2c3cc(NC(=O)C4CCC4)ccc3O[C@@H]2[C@@H](CO)O1)NCc1ccc2c(c1)OCO2 | activity change, negative = inhibition | 48.6%
Cc1ccc(C2Oc3ccccc3C3=C2C(c2cccs2)n2ncnc2N3)cc1 (centres undefined) | activity change, negative = inhibition | 12.9%
CSc1ncccc1C(=O)OCC(=O)Nc1ccc(C)c(S(=O)(=O)N2CCOCC2)c1 | activity change, negative = inhibition | -12.3% [at 16 µM]
Cc1ccc2c(c1)c1c3n2CCN(CC(N)=O)C3CCC1 (centres undefined) | activity change, negative = inhibition | 38.7%
CC(C)NC(=O)N(C)C[C@@H]1Oc2ccc(NC(=O)C3CC3)cc2CC(=O)N([C@H](C)CO)C[C@H]1C | activity change, negative = inhibition | -3.87%
Cc1noc(C)c1S(=O)(=O)N(C)C[C@H]1Oc2ccc(NC(=O)Nc3ccccc3)cc2CC(=O)N([C@H](C)CO)C[C@H]1C | activity change, negative = inhibition | 14.5%
C[C@H](O)[C@@H]1C(=O)N2CCc3c([nH]c4cccc(-c5ccccc5)c34)[C@@H]2C[C@@H]1N(C)C(=O)OCc1ccccc1 | activity change, negative = inhibition | -17.1%
COc1cccc(S(=O)(=O)N[C@H]2CC[C@H](CC(=O)NCc3ccncc3)O[C@@H]2CO)c1 | activity change, negative = inhibition | 30.8%
CN(C)C(=O)C[C@@H]1C[C@@H]2c3cc(NS(=O)(=O)c4ccc(F)cc4)ccc3O[C@@H]2[C@@H](CO)O1 | activity change, negative = inhibition | 8.4%
COC(=O)[C@H](Cc1ccccc1)NC(=O)Cn1cnc(C(=O)Nc2ccc(C)c(C)c2)n1 | activity change, negative = inhibition | 23.2%
C[C@@H]1CN([C@@H](C)CO)S(=O)(=O)c2ccc(-c3ccccc3)cc2O[C@H]1CN(C)S(C)(=O)=O | activity change, negative = inhibition | 54.4%
COCC(=O)N(C)C[C@H]1Oc2ncc(Br)cc2C(=O)N([C@H](C)CO)C[C@H]1C | activity change, negative = inhibition | 50.8%
C[C@@H]1CN([C@@H](C)CO)C(=O)Cc2cc(NC(=O)c3ccncc3)ccc2O[C@H]1CN(C)Cc1ccc(Cl)c(Cl)c1 | activity change, negative = inhibition | -39.7%
CS(=O)(=O)Nc1ccc2c(c1)[C@H]1C[C@@H](CC(=O)NCCN3CCCCC3)O[C@@H](CO)[C@H]1O2 | activity change, negative = inhibition | 21%
CN(C)C(=O)C[C@H]1C[C@@H]2c3cc(NC(=O)NC4CCCCC4)ccc3O[C@@H]2[C@H](CO)O1 | activity change, negative = inhibition | -20.7%
C[C@H]1CN([C@@H](C)CO)C(=O)Cc2cc(N(C)C)ccc2O[C@H]1CN(C)CC1CC1 | activity change, negative = inhibition | 11.8%
CN(C)C(=O)C[C@H]1C[C@@H]2c3cc(NS(=O)(=O)c4ccc(F)cc4)ccc3O[C@@H]2[C@@H](CO)O1 | activity change, negative = inhibition | -6.58%
C[C@H](CO)N1C[C@H](C)[C@@H](CN(C)CC2CC2)Oc2ccc(NS(C)(=O)=O)cc2CC1=O | activity change, negative = inhibition | 4.33%
COc1ccc(-c2nn(C)c(=O)c3ccccc23)cc1NC(=O)COc1ccccc1 | activity change, negative = inhibition | -10.9%
